Test system: Brachiaria plantaginea (BRAPL)
Assay: B2 Post-Emergence Efficacy - Test 2
Assay type: in vivo
Conditions: 15 g/Ha, 15 days after application, 0=no damage, 100=total kill
The entries below are paired with their reported Herbicidal activity on a 0-100 scale, BRAPL.

Below, each entry is followed by its recorded Herbicidal activity on a 0-100 scale, BRAPL result.
Cc1nn(C)c(=O)c(-c2c(F)ccc(Cl)c2CCc2ccc(F)cc2)c1O
20
Cc1nn(C)c(=O)c(-c2c(F)ccc(Cl)c2CCc2ccccc2C(F)(F)F)c1O
0
Cc1nn(C)c(=O)c(-c2c(F)ccc(Cl)c2CCc2ccc(C#N)cc2)c1O
30
Cc1nn(C)c(=O)c(-c2c(F)ccc(Cl)c2CCc2ccc(C(F)(F)F)nc2)c1O
80
Cc1nn(C)c(=O)c(-c2c(F)ccc(Cl)c2CCc2ccc(Cl)cc2)c1OC(=O)C(C)C
80

Note: attention shifts to another entry.
[ask] Name the reported Herbicidal activity on a 0-100 scale, BRAPL value associated with the compound Cc1nn(C)c(=O)c(-c2c(F)ccc(Cl)c2CCc2ccc(F)cc2)c1OC(=O)C(C)C
[reply] 80

----------
System: Setaria faberi (SETFA)
Assay: B2 Post-Emergence Efficacy - Test 2
Format: in vivo
Settings: 500 g/Ha, 15 days after application, 0=no damage, 100=total kill
QUANTITY: Herbicidal activity on a 0-100 scale, SETFA
Form rule: numeric answer, no unit written next to it.

Cc1nn(C)c(=O)c(-c2c(F)ccc(Cl)c2CCc2ccccc2C(F)(F)F)c1O [Compound 1.066]
90
Cc1nn(C)c(=O)c(-c2c(F)ccc(Cl)c2CCc2ccc(C(F)(F)F)nc2)c1O [Compound 1.042]
100
Cc1nn(C)c(=O)c(-c2c(F)ccc(Cl)c2CCc2ccc(C#N)cc2)c1O [Compound 1.024]
100
Cc1nn(C)c(=O)c(-c2c(F)ccc(Cl)c2CCc2ccc(F)cc2)c1O [Compound 1.048]
100
Cc1nn(C)c(=O)c(-c2c(F)ccc(Cl)c2CCc2ccc(Cl)cc2)c1OC(=O)C(C)C [Compound 1.089]
80

[ask] Name the reported Herbicidal activity on a 0-100 scale, SETFA value associated with the compound Cc1nn(C)c(=O)c(-c2c(F)ccc(Cl)c2CCc2ccc(F)cc2)c1OC(=O)C(C)C [Compound 1.125]
[reply] 100

----------
The entries below are paired with their reported Herbicidal activity on a 0-100 scale, ZEAMX.
System: Zea mays (ZEAMX)
Test: B2 Post-Emergence Efficacy - Test 2
Type: in vivo
Conditions: 500 g/Ha, 15 days after application, 0=no damage, 100=total kill
Form rule: numeric answer, no unit written next to it.

Cc1nn(C)c(=O)c(-c2c(F)ccc(Cl)c2CCc2ccc(F)cc2)c1OC(=O)C(C)C
70
Cc1nn(C)c(=O)c(-c2c(F)ccc(Cl)c2CCc2ccccc2C(F)(F)F)c1O
70
Cc1nn(C)c(=O)c(-c2c(F)ccc(Cl)c2CCc2ccc(Cl)cc2)c1OC(=O)C(C)C
100
Cc1nn(C)c(=O)c(-c2c(F)ccc(Cl)c2CCc2ccc(F)cc2)c1O
100

[ask] Name the reported Herbicidal activity on a 0-100 scale, ZEAMX value associated with the compound Cc1nn(C)c(=O)c(-c2c(F)ccc(Cl)c2CCc2ccc(C#N)cc2)c1O
[reply] 100

[ask] Name the reported Herbicidal activity on a 0-100 scale, ZEAMX value associated with the compound Cc1nn(C)c(=O)c(-c2c(F)ccc(Cl)c2CCc2ccc(C(F)(F)F)nc2)c1O
[reply] 90
